quantity_name: melting point

Please review the following examples before continuing.
- molecule: "CCS(=O)(=O)c1cnc(N)nc1-c1ccc(C(F)(F)C(F)(F)C(F)(F)C(F)(F)F)nn1"
  melting point: "186 to 188 °C"
- molecule: "CCS(=O)(=O)c1cnc(-c2ncn(C)n2)nc1-c1ccc(C(F)(F)C(F)(F)C(F)(F)C(F)(F)F)nn1"
  melting point: "182 to 185 °C"
- molecule: "Br.CCS(=O)(=O)c1cnc(-c2ncccn2)nc1-c1ccc(O)cn1"
  melting point: "234 to 239 °C"
- molecule: "CCS(=O)(=O)c1cnc(-c2ncccn2)nc1-c1ccc(OCC(F)(F)F)nn1 [2-8]"
  melting point: "209 to 210 °C"

// moving on: another record for melting point
What does the data say about its melting point? Entry: CCS(=O)(=O)c1cnc(O)cc1-c1ccc(OCC(F)(F)C(F)(F)F)cn1 [2-11]
212 to 214 °C
